- ASSAY SYSTEM: PRMT8 (Homo sapiens, UniProt Q9NR22)
- Sequence (Q9NR22 whole entry, species assumed): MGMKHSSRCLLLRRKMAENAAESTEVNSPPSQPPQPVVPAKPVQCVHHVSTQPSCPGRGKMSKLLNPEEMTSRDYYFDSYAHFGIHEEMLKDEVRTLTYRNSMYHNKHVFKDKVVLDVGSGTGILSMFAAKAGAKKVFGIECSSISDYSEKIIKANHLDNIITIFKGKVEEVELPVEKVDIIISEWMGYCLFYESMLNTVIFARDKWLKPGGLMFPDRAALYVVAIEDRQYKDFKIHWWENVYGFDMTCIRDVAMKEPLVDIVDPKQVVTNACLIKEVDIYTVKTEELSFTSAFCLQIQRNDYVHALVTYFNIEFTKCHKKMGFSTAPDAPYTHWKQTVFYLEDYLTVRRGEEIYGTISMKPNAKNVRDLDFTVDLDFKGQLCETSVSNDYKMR
READOUT LABEL: IC50 (nM)
Numbers only, in nM.

Prompt line: Fill in reported IC50 for this entry: CNCCN1CC(OCc2cccc(OC(F)(F)F)c2)C1 [Compound 6]
Response line: 1200
